Test system: HOP-62 NSCLC
Classes used: yes (1) for active, no (0) for inactive

[[record]]
compound = "CC1(C)CC[C@]2(C(N)=O)CC[C@]3(C)C(=CC[C@@H]4[C@@]5(C)C/C(=C/c6ccncc6)C(=O)C(C)(C)[C@@H]5CC[C@]43C)[C@@H]2C1"
systemname = "HOP-62 NSCLC"
qualitativelabel = "no (0)"

[[record]]
compound = "CCOc1cc(-c2ccc[nH]2)[nH]c1/C=C1\\N=C(C)C(C(=O)OC)=C1C"
systemname = "HOP-62 NSCLC"
qualitativelabel = "yes (1)"

[[record]]
compound = "N[C@@H]1CCCC[C@@H]1N.O=P([O-])([O-])CN(CP(=O)([O-])[O-])CP(=O)([O-])[O-].[Pt+2]"
systemname = "HOP-62 NSCLC"
qualitativelabel = "no (0)"

[[record]]
compound = "CC1=C(C(=O)Nc2ccc(Cl)c(Cl)c2)C(c2ccccc2O)NC(=O)N1 (centres undefined)"
systemname = "HOP-62 NSCLC"
qualitativelabel = "no (0)"

[[record]]
compound = "Oc1[nH]c2cc(Cl)ccc2c1/C=c1/ccc2c(c1)N=C(c1cc(F)cc(F)c1)N=2"
systemname = "HOP-62 NSCLC"
qualitativelabel = "no (0)"

[[record]]
compound = "Oc1ccc(Cl)cc1Cc1cc(Cl)ccc1O"
systemname = "HOP-62 NSCLC"
qualitativelabel = "no (0)"

[[record]]
compound = "Nc1ccc(S(=O)(=O)Nc2cnc3c(Cl)cccc3n2)cc1"
systemname = "HOP-62 NSCLC"
qualitativelabel = "no (0)"

[[record]]
compound = "C=[CH][Sn]([CH]=C)([O]c1cccc2cccnc12)[O]c1cccc2cccnc12"
systemname = "HOP-62 NSCLC"
qualitativelabel = "no (0)"

[[record]]
compound = "O=C(Cc1csc2nc(-c3ccc(Br)cc3)cn12)N/N=C/c1ccc(O)cc1"
systemname = "HOP-62 NSCLC"
qualitativelabel = "no (0)"


* * *

Test system: NCI-H522 lung
Assay: NCI tumour cell line growth inhibition, 48 h
propertyName: TGI

[[record]]
compound = "COc1c(C)c(C/C=C(\\C)CC/C=C(\\C)CCC=C(C)C)c(OC)c(OC)c1OC"
result = "> 100 µM"

[[record]]
compound = "CCC(CC(C)C)Nc1ccc(NC(CC)CC(C)C)cc1 (stereo not drawn)"
result = "15.1 µM"

[[record]]
compound = "COc1ccc2nc3n(c2c1)CCc1cc(OC)c(OC)cc1-3"
result = "> 100 µM"

[[record]]
compound = "O=C1C=CC2(C=C1)C[C@H](NC(=O)C(F)(F)F)C(=O)O2"
result = "32.1 µM"

[[record]]
compound = "CC(NC(=O)c1ccccc1)(C(=O)O)C(=O)O"
result = "> 100 µM"

[[record]]
compound = "O=S(=O)(c1ccc(O)c(C=Nc2ccc(Cl)cc2)c1)c1ccc(O)c(C=Nc2ccc(Cl)cc2)c1"
result = "> 100 µM"

[[record]]
compound = "Cc1nc(-c2cc3cc(Cl)ccc3oc2=O)cc2c1c(=O)oc1ccc(Cl)cc12"
result = "> 100 µM"

[[record]]
compound = "CC1CC/C(=C\\c2ccc(Cl)cc2)c2nc(N)c(C#N)c(-c3ccc(Cl)cc3)c21 (stereo not drawn)"
result = "> 100 µM"

[[record]]
compound = "CC(=O)CC(=O)CCC(=O)O"
result = "> 100 µM"

[[record]]
compound = "CCOC(=O)C(=O)C(=O)NN(C)C1=NCCN1"
result = "> 100 µM"

[[record]]
compound = "Nc1nc(Cl)cc(NCC2(O)CCCC2)n1"
result = "> 100 µM"

[[record]]
compound = "N#Cc1nc(C#N)n(C(=O)c2ccccc2)c1NC(=O)c1ccccc1"
result = "> 100 µM"

[[record]]
compound = "CO[C@H]1C[C@H](O[C@H]2CC[C@]3(C=O)[C@H]4CC[C@]5(C)[C@@H](C6=CC(=O)OC6)CC[C@]5(O)[C@@H]4CC[C@]3(O)C2)O[C@H](C)[C@H]1O"
result = "0.499 µM"


* * *

Tested on: HOP-92 NSCLC
Outcome codes: y (active), n (inactive)

[[record]]
compound = "C=[CH][Sn]([CH]=C)([O]c1cccc2cccnc12)[O]c1cccc2cccnc12"
qualitativelabel = "n"

[[record]]
compound = "CCOc1cc(-c2ccc[nH]2)[nH]c1/C=C1\\N=C(C)C(C(=O)OC)=C1C"
qualitativelabel = "y"

[[record]]
compound = "O=C(Nc1ccccc1C(=O)N/N=C(\\c1ccccc1)c1ccccn1)c1ccc(F)cc1"
qualitativelabel = "n"

[[record]]
compound = "Cc1ccc(C(C)C)cc1NC(=O)Nc1ccc([N+](=O)[O-])cc1"
qualitativelabel = "n"

[[record]]
compound = "CC(=O)Oc1ccc(/C=N/NC(N)=S)nc1"
qualitativelabel = "n"

[[record]]
compound = "COc1cccc(C2NC(=S)NC(C)=C2C(=O)Nc2ccc(Cl)c(Cl)c2)c1 (stereo not drawn)"
qualitativelabel = "n"

[[record]]
compound = "O=C(NCCCCCCCNC(=O)OCc1ccc2c(Cl)cc(Cl)c(O)c2n1)OCc1ccc2c(Cl)cc(Cl)c(O)c2n1"
qualitativelabel = "n"

[[record]]
compound = "O=C(Cc1csc2nc(-c3ccc(Br)cc3)cn12)N/N=C/c1ccc(O)cc1"
qualitativelabel = "n"

[[record]]
compound = "COc1cc(NC(=O)Nc2cnc(Nc3ccc(N4CCOCC4)cc3)nc2Oc2cccc(OC)c2)cc(OC)c1"
qualitativelabel = "n"

[[record]]
compound = "CO[C@]1(CN2CCN3CCCC[C@@H]3C2)/C=C/C[C@H](C)[C@@H](C)S(=O)(=O)NC(=O)c2ccc3c(c2)N(C[C@@H]2CC[C@H]21)C[C@@]1(CCCc2cc(Cl)ccc21)CO3"
qualitativelabel = "n"

[[record]]
compound = "Cc1cc(Cl)ccc1NS(=O)(=O)c1ccc(-c2cnc(C3CC3)o2)cc1"
qualitativelabel = "n"

[[record]]
compound = "CC/C=C\\C/C=C\\C[C@H](O)C/C=C1/C(=O)C=C[C@@H]1C/C=C\\CCCC(=O)OC"
qualitativelabel = "n"

[[record]]
compound = "CC1=C(C(=O)Nc2ccc(Cl)c(Cl)c2)C(c2ccccc2O)NC(=O)N1 (stereo not drawn)"
qualitativelabel = "n"


* * *

# Lookup of reported GI50 keyed by entry
System: HCT-15 colon
propertyName: GI50

[[record]]
molecule = "Cc1ccc(C(C)C)cc1NC(=O)Nc1ccc([N+](=O)[O-])cc1"
result = "2.44 µM"

[[record]]
molecule = "N[C@@H]1CCCC[C@@H]1N.O=P([O-])([O-])CN(CP(=O)([O-])[O-])CP(=O)([O-])[O-].[Pt+2]"
result = "> 100 µM"

[[record]]
molecule = "CCC(CC(C)C)Nc1ccc(NC(CC)CC(C)C)cc1 (stereo unspecified)"
result = "14.8 µM"

[[record]]
molecule = "COc1cccc(C2NC(=S)NC(C)=C2C(=O)Nc2ccc(Cl)c(Cl)c2)c1 (stereo unspecified)"
result = "8.57 µM"

[[record]]
molecule = "CC1COCC(C)N1C1=C(Cl)C(=O)c2ccccc2C1=O (stereo unspecified)"
result = "6.5 µM"

[[record]]
molecule = "CC1(C)CC[C@]2(C(N)=O)CC[C@]3(C)C(=CC[C@@H]4[C@@]5(C)C/C(=C/c6ccncc6)C(=O)C(C)(C)[C@@H]5CC[C@]43C)[C@@H]2C1"
result = "1.69 µM"


* * *

Assay read-out GI50; system under study: OVCAR-3 ovarian.
propertyName: GI50

[[record]]
molecule = "COc1cccc(C2NC(=S)NC(C)=C2C(=O)Nc2ccc(Cl)c(Cl)c2)c1 (stereo unspecified)"
propertyname = "GI50"
result = "8.88 µM"

[[record]]
molecule = "O=c1cc(-c2ccccn2)[nH]c2ccc(Cl)cc12"
propertyname = "GI50"
result = "63.7 µM"

[[record]]
molecule = "CC1COCC(C)N1C1=C(Cl)C(=O)c2ccccc2C1=O (stereo unspecified)"
propertyname = "GI50"
result = "1.56 µM"

[[record]]
molecule = "CN1CCN(c2nc(-c3ccncc3)nc3sc4c(c23)CCCCCC4)CC1"
propertyname = "GI50"
result = "13.5 µM"

[[record]]
molecule = "CO[C@]1(CN2CCN3CCCC[C@@H]3C2)/C=C/C[C@H](C)[C@@H](C)S(=O)(=O)NC(=O)c2ccc3c(c2)N(C[C@@H]2CC[C@H]21)C[C@@]1(CCCc2cc(Cl)ccc21)CO3"
propertyname = "GI50"
result = "1.62 µM"

[[record]]
molecule = "CO[C@@]12[C@@H]3NC3CN1C1=C(C(=O)C(N)=C(C)C1=O)[C@@H]2COC(N)=O (stereo partly specified)"
propertyname = "GI50"
result = "1.07 µM"


* * *

Test system: UACC-62 melanoma
Assay: NCI tumour cell line growth inhibition, 48 h
propertyName: TGI

[[record]]
compound = "Cc1[nH]c(=O)[nH]c(=S)c1C(=O)Nc1cccc2cc3ccccc3cc12"
propertyname = "TGI"
result = "> 100 µM"

[[record]]
compound = "CC1OC(OC2CCC3(C=O)C4CCC5(C)C(C6=CC(=O)OC6)CCC5(O)C4CCC3(O)C2)C(O)C(O)C1O (stereo unspecified)"
propertyname = "TGI"
result = "0.000127 µM"

[[record]]
compound = "C/C(CC(=O)N(C(C)C)C(C)C)=N\\NC(=O)c1ccncc1"
propertyname = "TGI"
result = "> 100 µM"

[[record]]
compound = "C/C(Nc1ccc(Cl)cc1Cl)=C1/CCOC1=O"
propertyname = "TGI"
result = "> 100 µM"

[[record]]
compound = "CC(C)OC1OC(CO)C(O)CC1n1cc(F)c(=O)[nH]c1=O (stereo unspecified)"
propertyname = "TGI"
result = "> 100 µM"

[[record]]
compound = "Cc1ccc(-c2n[nH]c(=O)n2/N=C\\c2ccccc2)cc1"
propertyname = "TGI"
result = "> 100 µM"

[[record]]
compound = "CCSC(SCC)=C1C(=O)N(c2ccccc2)N=C1C"
propertyname = "TGI"
result = "28 µM"

[[record]]
compound = "COc1cccc(C2NC(=S)NC(C)=C2C(=O)Nc2ccc(Cl)c(Cl)c2)c1 (stereo unspecified)"
propertyname = "TGI"
result = "15.9 µM"

[[record]]
compound = "CN1C(=O)C(O)CC1c1cccc(C(F)(F)F)c1 (stereo unspecified)"
propertyname = "TGI"
result = "> 100 µM"

[[record]]
compound = "O=C(c1ccc(Cl)cc1)C1OC12C(=O)Nc1ccccc12 (stereo unspecified)"
propertyname = "TGI"
result = "32.3 µM"

[[record]]
compound = "COc1ccc(OC)c2c3c(ccc12)C(c1ccccc1)OC3=O (stereo unspecified)"
propertyname = "TGI"
result = "> 100 µM"


Sourced from PubChem BioAssay (NCI)
